Hey, just so you know, these numbers are from ChEMBL document CHEMBL5036339.

Test: Hemolytic activity in rabbit erythrocytes assessed as concentration required to cause 50% hemolysis
Assay type: ADME, cell-based, Oryctolagus cuniculus, Erythrocyte
Rule: HC50 below 200 µg/mL gives true. Equal to or above 200 µg/mL gives false.

>  <Mol>
CC(C)=CCn1cc(CC(=O)NCCCN)c2ccccc21

>  <Assigned Class>
false

$$$$
>  <Mol>
CC(C)=CCC/C(C)=C/Cn1cc(CC(=O)NCCCN)c2ccccc21

>  <Assigned Class>
true

$$$$

*Q* Consider `CC(C)=CCC/C(C)=C/Cn1cc(CC(=O)N[C@@H](CCCNC(=N)N)C(N)=O)c2ccccc21` . Does its HC50 lie strictly below 200 µg/mL?
*A* true

---

// reported HC50 per item
Assay: Hemolytic activity in rabbit erythrocytes assessed as concentration required to cause 50% hemolysis
Type: ADME, cell-based, Oryctolagus cuniculus, Erythrocyte

// worked examples, HC50 included
>  <Mol>
CCOC(=O)Cc1c[nH]c2ccccc12

>  <HC50>
> 200 µg/mL

$$$$
>  <Mol>
C=CCCCCCn1cc(CC(=O)NCCN(CCN)CCN)c2ccccc21

>  <HC50>
140 µg/mL

$$$$
>  <Mol>
COC(=O)[C@H](Cc1c[nH]cn1)NC(=O)Cc1cn(C/C=C(\C)CCC=C(C)C)c2ccccc12

>  <HC50>
> 200 µg/mL

$$$$
>  <Mol>
CC(C)=CCC/C(C)=C/Cn1cc(CC(=O)N[C@@H](CCCNC(=N)N)C(=O)N[C@@H](CCCNC(=N)N)C(N)=O)c2ccccc21

>  <HC50>
> 200 µg/mL

$$$$
>  <Mol>
COC(=O)[C@H](CCCNC(=N)N)NC(=O)[C@H](CCCNC(=N)N)NC(=O)[C@H](CCCNC(=N)N)NC(=O)Cc1cn(C/C=C(\C)CCC=C(C)C)c2ccccc12

>  <HC50>
> 200 µg/mL

$$$$

Pending compound:
Quick note, HC50 for `CCCCN(CCCC)CCCNC(=O)Cc1cn(C/C=C(\C)CCC=C(C)C)c2ccccc12` landed at 72.3 µg/mL

---

Experiment: Hemolytic activity in rabbit erythrocytes assessed as concentration required to cause 50% hemolysis
Assay type: ADME, cell-based, Oryctolagus cuniculus, Erythrocyte
This listing pairs compounds with measured HC50.
Unit µg/mL implied. Number only.

// worked examples, HC50 included
>  <Mol>
CCCCCCCCCCn1cc(CC(=O)NCCN(CCN)CCN)c2ccccc21

>  <HC50 [µg/mL]>
95.9

$$$$
>  <Mol>
CC(C)=CCC/C(C)=C/Cn1cc(CC(=O)NCCN(CCNC(=N)N)CCNC(=N)N)c2ccccc21

>  <HC50 [µg/mL]>
226

$$$$
>  <Mol>
CC(C)=CCC/C(C)=C/Cn1cc(CC(=O)NCCN(CCN)CCN)c2ccccc21

>  <HC50 [µg/mL]>
208

$$$$

We next turn to a different compound, shown below.
Value of HC50 reported for the compound `CC(C)=CCC/C(C)=C/Cn1cc(CC(=O)NCCCNC(=N)N)c2ccccc21` is 733

---

Assay: Hemolytic activity in rabbit erythrocytes assessed as concentration required to cause 50% hemolysis
Format: ADME, cell-based, Oryctolagus cuniculus, Erythrocyte
The entries below come with measured HC50 values attached.
Write it as a number; the unit µg/mL goes unstated.

Some solved cases for reference:
>  <Mol>
COC(=O)[C@H](CCCNC(=N)N)NC(=O)Cc1cn(C/C=C(\C)CCC=C(C)C)c2ccccc12

>  <HC50 [µg/mL]>
58.8

$$$$
>  <Mol>
CC(C)=CCC/C(C)=C/Cn1cc(CC(=O)NCCCN2CCCC2)c2ccccc21

>  <HC50 [µg/mL]>
47.6

$$$$

Lab note: next molecule to report on.
Measured HC50 of `CC(C)=CCC/C(C)=C/Cn1cc(CC(=O)NCCCN(C)C)c2ccccc21` : 55.1
